Source: PubChem BioAssay

- assay_name: plasmodial surface anion channel blockers, osmotic lysis – cell-based, P. falciparum Indochina, OD700, 2 h, primary screen (AID 1155);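 note: lysis reports solute entry through the parasite surface anion channel PSAC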
- condition_description: P. falciparum Indochina infected erythrocytes, higher = more signal, called active from +8 up or from −8 down
I'd be grateful if you could share measured z-score for these entries.
Give bare numbers.

>  <compound>
COCC1=C([C@H](O)CCc2ccccc2)[C@H](CO)[C@@H]2C(=O)N(Cc3ccccc3)C(=O)[C@@H]2C1

>  <property>
z-score

>  <numeric_readout>
2.04

$$$$
>  <compound>
COCC1C2CC[C@H]3C(OCc4ccc(F)cc4C(F)(F)F)OC[C@]4(C)[C@H]3C2=C(CN4C(=O)OC(C)(C)C)[C@H](C)C1COC (some centres undefined)

>  <property>
z-score

>  <numeric_readout>
-0.298

$$$$
>  <compound>
CS(=O)(=O)CCOC(=O)C1=CC(c2ccc(CO)cc2)=CC(c2cccs2)N(Cc2cccc(OC(F)(F)F)c2)C=C1C(=O)OCCS(C)(=O)=O (centres undefined)

>  <property>
z-score

>  <numeric_readout>
4.37

$$$$

Let us examine a further case.
Give the measured z-score of CCOC1=C2C(c3ccc(C)cc3)N(S(=O)(=O)c3ccc(C)cc3)CC2n2c(=O)n(-c3ccccc3)c(=O)n2C1 (centres undefined) . 1.32
